system: IL-10; assay: IL-10 release in supernatants of LPS-treated primary microglial cells (ELISA); type: cell-based, Wistar rats; conditions: C3: 5.0 μg/mL, 72 h, LPS-treated
recorded_metric: IL-10 release
# output: number + unit

>  <compound>
C=C(C)[C@@H]1CC(=O)[C@H]2[C@H](C1)[C@@H]1C(=O)O[C@@H]3C[C@@]4(C)O[C@H]2C(=O)[C@@H]4[C@H]13 [Compound 6, ineleganolide]

>  <recorded_metric>
IL-10 release

>  <result>
7.5 ± 2.1 pg/mL

$$$$
>  <compound>
C=C(C)C1CCC23OC2C(CC2(C)CC(=O)C(CC(=O)C1)O2)OC3=O (centres unmarked) [Compound 3, scabrolide D]

>  <recorded_metric>
IL-10 release

>  <result>
6.9 ± 1.5 pg/mL

$$$$
>  <compound>
C=C(C)[C@@H]1C/C=C2\C(=O)O[C@@H](C[C@]3(C)CC(=O)[C@@H](CC(=O)C1)O3)[C@@H]2O [Compound 2, sinuleptolide]

>  <recorded_metric>
IL-10 release

>  <result>
18.5 ± 1.9 pg/mL

$$$$
>  <compound>
C=C(C)[C@@H]1C/C=C(\C(=O)OC)CC(=O)C[C@]2(C)CC(=O)[C@H](CC(=O)C1)O2

>  <recorded_metric>
IL-10 release

>  <result>
7.8 ± 3.2 pg/mL

$$$$

Continue with the compound presented below.
Data request: Endpoint output: IL-10 release of C=C(C)[C@@H]1C/C=C2\C(=O)O[C@@H](C[C@]3(C)CC(=O)[C@H](CC(=O)C1)O3)[C@@H]2O [Compound 1, 5-epi-sinuleptolide] . Value?
Data returned: 8.7 ± 2.1 pg/mL
